- Type: in vitro ADME
- PARTICULARS: PAMPA, pH 8.5
MEASUREMENT_NAME: Papp (×10⁻⁶ cm/s)
Hi! Could you send only the number? It should be in ×10⁻⁶ cm/s, unit omitted.

Exercise: For Cc1nccn1CC1CCc2c(c3ccccc3n2C)C1=O.Cl (stereo not shown) [Ondansetron HCl, ondansetron HCl] , what is its reported Papp?
Solution: 3.25

* * *

- Assay type: in vitro ADME
- PARTICULARS: PAMPA, pH 5.4
MEASUREMENT_NAME: Papp
Number first, unit second.

Exercise: Look at this compound and give its reported Papp. Cc1nccn1CC1CCc2c(c3ccccc3n2C)C1=O.Cl (stereo not shown) [Ondansetron HCl, ondansetron HCl]
Solution: 0.32 ×10⁻⁶ cm/s
